sequences and their reported protein stability index
- protocol description: protein stability index of a GFP-peptide fusion (GPS, HEK-293T) (PSI 1-6); higher = more stable;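 further: 24-mer peptide tiles fused after GFP, lentivirally expressed, FACS-sorted into six equal bins by GFP/DsRed ratio, decoded by Illumina sequencing, PSI is the read-weighted mean bin number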
- study conditions: treatment: DMSO; c terminus: a fixed tail appended
Give the figure only, with no unit attached.

Please review the entries below; each comes with its answer.
HHPEVPQRILRIMCRLEELGLAGR [HDAC6] : 2.09
EGTFRPERLLAVAERYGLSGSDVL [RAD51] : 3.23
DNANILLQIDNARLAADDFRTKFE [KRT17] : 3.27
DLYKKVKKNSSPPLSLYGQLLWRE [CRY1] : 2.64
DTKMSFQWRIRNLPYPKDVYSVSV [DPCD] : 2.79

// query protein stability index value for entry SSLRRQFEFSVDSFQIVLDPMLDF [TENT5D] 2.41

Moving on to RQVQSLMVHQRKLEAELLQIEERH [SMARCE1] 4

Moving on to GCLLPDGSRMMAVAALVVNFSQPV [NLN] 3.04

Moving on to AAQDRPMSPGDCPPETTETPKCSS [YJU2B] 5.54

Moving on to SMPRINHGVLSAEGFLFVFGGQDE [GAN] 3.05
